Test system: NativeSkin® skin explants (Genoskin)
Assay: Histological analysis (haematoxylin/eosin) of NativeSkin skin explant ex vivo after UVA irradiation
Format: cell-based, human
Settings: composition 0.9 mmol/L topical, 60 J/cm^2 UVA every day for 3 days, FIG. 5
Quantity Kind: Morphology of the epidermis after UVA irradiation (histological analysis)

Using the record for `Cc1ncc(CO)c(CNC(=O)/C=C/c2ccc(O)c(O)c2)c1O` , report its Morphology of the epidermis after UVA irradiation (histological analysis). totally protected

`COc1ccc(/C=C/C(=O)NCc2c(CO)cnc(C)c2O)cc1O` , same question. totally protected
